- assayExplanation: yeast display, Sf9 membrane polyspecificity reagent, FACS + sequencing; frameworks hold sequencing errors
assayMetric: polyreactivity (PSR sort gate)

chain=QVQLVESGGGLVQAGGSLRLSCAASGSIFKSNGMGWYRQAPGKERELVAAITGSGGTTYYADSVKGRFTISRDNAKNTVYLQMNSLKPEDTAVYYCAADIYWYPTYYYWGQGTQVTVSS assaymetric="polyreactivity (PSR sort gate)" measuredvalue="low polyreactivity"
chain=QVQLVESGGGLVQAGGSLRLSCAASGRLFYLNAMGWYRQAPGKERDLVAAISGSTGSTYYADSVKGRITISRDNAMNPVYLHMTSLKPVDTAVYYSNAGGVYVEFNYWGQGTQVTVSS assaymetric="polyreactivity (PSR sort gate)" measuredvalue="low polyreactivity"

Source listed as the nanobody polyreactivity screen of Harvey et al. (2022).
